Tested on: Staphylococcus aureus
method-summary: Antibacterial activity against clinical isolates of methicillin-resistant Staphylococcus aureus P4629 by checkerboard assay in presence of norfloxacin
Type: functional
endpoint-name: fractional inhibitory concentration index (FICI)

substance-smiles: COc1ccc([C@@H]2COc3c(cc(/C=C/C(=O)c4ccco4)c4c3C=CC(C)(C)O4)C2)c(OC)c1
assay-result: 0.625
//
substance-smiles: COc1ccc([C@@H]2COc3c(cc(/C=C/C(=O)c4ccc(OC)c(OC)c4)c4c3C=CC(C)(C)O4)C2)c(OC)c1
assay-result: 0.375
//
substance-smiles: CC1(C)C=Cc2c(ccc3c2OC[C@@H](c2ccc(O)cc2O)C3)O1
assay-result: 0.5
//
substance-smiles: COc1cc(OC)c([C@@H]2COc3c(cc(/C=C/C(=O)c4ccc(OC)c(OC)c4)c4c3C=CC(C)(C)O4)C2)cc1/C=C/C(=O)c1ccc(OC)c(OC)c1
assay-result: 0.5
//
substance-smiles: COc1cc(OC)c([C@@H]2COc3c(cc(/C=C/C(=O)c4ccco4)c4c3C=CC(C)(C)O4)C2)cc1/C=C/C(=O)c1ccco1
assay-result: 0.312

====

Tested on: Staphylococcus aureus
method-summary: Antibacterial activity against clinical isolates of methicillin-resistant Staphylococcus aureus ST10342 by broth microdilution assay
Type: functional

compound: CCn1cc(C(=O)O)c(=O)c2cc(F)c(N3CCNCC3)cc21 [NORFLOXACIN]
censoring-sign: =
MIC [µg/mL]: 250
//
compound: COc1ccc([C@@H]2COc3c(cc(/C=C/C(=O)c4ccc[nH]4)c4c3C=CC(C)(C)O4)C2)c(OC)c1
censoring-sign: >
MIC [µg/mL]: 100
//
compound: COc1ccc(C(=O)/C=C/c2cc([C@@H]3COc4c(ccc5c4C=CC(C)(C)O5)C3)c(OC)cc2OC)cc1
censoring-sign: >
MIC [µg/mL]: 100
//
compound: COc1cc(OC)c([C@@H]2COc3c(cc(/C=C/C(=O)c4ccccc4)c4c3C=CC(C)(C)O4)C2)cc1/C=C/C(=O)c1ccccc1
censoring-sign: =
MIC [µg/mL]: 25

====

Test system: Staphylococcus aureus
method-summary: Antibacterial activity against clinical isolates of methicillin-resistant Staphylococcus aureus ST10342 by broth microdilution assay
Type: functional
Entries and their MIC values follow.

substance-smiles: COc1cc(OC)c([C@@H]2COc3c(ccc4c3C=CC(C)(C)O4)C2)cc1/C=C/C(=O)c1cc(OC)c(OC)c(OC)c1
censoring-sign: =
MIC [µg/mL]: 25

substance-smiles: COc1cc(OC)c([C@@H]2COc3c(cc(C=O)c4c3C=CC(C)(C)O4)C2)cc1C=O
censoring-sign: >
MIC [µg/mL]: 100

substance-smiles: COc1ccc(C(=O)/C=C/c2cc([C@@H]3COc4c(cc(/C=C/C(=O)c5ccc(OC)cc5OC)c5c4C=CC(C)(C)O5)C3)c(OC)cc2OC)c(OC)c1
censoring-sign: =
MIC [µg/mL]: 50

substance-smiles: COc1cc(OC)c([C@@H]2COc3c(ccc4c3C=CC(C)(C)O4)C2)cc1/C=C/C(=O)c1ccc(OC)c(OC)c1
censoring-sign: >
MIC [µg/mL]: 100

substance-smiles: COc1ccc([C@@H]2COc3c(cc(/C=C/C(=O)c4ccc(OC)c(OC)c4)c4c3C=CC(C)(C)O4)C2)c(OC)c1
censoring-sign: =
MIC [µg/mL]: 50

substance-smiles: COc1cc(OC)c([C@@H]2COc3c(cc(/C=C/C(=O)c4ccc(OC)c(OC)c4)c4c3C=CC(C)(C)O4)C2)cc1/C=C/C(=O)c1ccc(OC)c(OC)c1
censoring-sign: =
MIC [µg/mL]: 12.5

substance-smiles: COc1cc(OC)c([C@@H]2COc3c(cc(/C=C/C(=O)c4ccccc4OC)c4c3C=CC(C)(C)O4)C2)cc1/C=C/C(=O)c1ccccc1OC
censoring-sign: =
MIC [µg/mL]: 100
